Recorded measurements of pIC50, one per entry
Molecular target: human Cav2.2 (Homo sapiens)
Assay: Assessment of calcium channel activity using FLIPR (Ca2+ influx in IMR32 cells)
Format: cell-based
Details: 60 minute pre-incubation with compound, 2 μM nifedipine, depolarized with 80 mM KCl
Protocol: (i) In Vitro Methods—Assessment of Calcium Channel Activity Using FLIPR: The IMR32 cells were maintained in MEM media containing 10% (v/v) FBS, 1% (v/v) antibiotic/antimitotic, 1% (v/v) sodium pyruvate and 1% (v/v) MEM NEAA. […] To determine the IC50 values, the percent inhibition of the compound at each concentration was determined relative to the activity in the absence of inhibitor, and data was fitted using non-linear regression sigmoidal dose response curve analysis with GraphPad Prism®.
FYI, pIC50 means -log10 of a concentration in mol per litre.

smiles-repr: CC(C)C[C@@H](C(=O)N[C@@H]1CC[C@H]2CN(S(=O)(=O)c3cccc(C(F)(F)F)c3)C[C@H]21)N1CCCCC1
pIC50: 6.36

smiles-repr: CC(C)(C)OC(=O)N1CCC[C@H]1C(=O)N[C@@H]1CC[C@H]2CN(S(=O)(=O)c3cccc(C(F)(F)F)c3)C[C@H]21
pIC50: 6.06

smiles-repr: CC(C)(C)C[C@H](N)C(=O)N[C@H]1CC[C@@H]2CN(S(=O)(=O)c3ccc(C(F)(F)F)cc3Cl)C[C@@H]21
pIC50: 6.02

smiles-repr: CCCC[C@@H](C(=O)N[C@H]1CC[C@@H]2CN(S(=O)(=O)c3cccc(C(F)(F)F)c3)C[C@@H]21)N(C)C(=O)OC(C)(C)C
pIC50: 6.14

smiles-repr: CN[C@@H](CC(C)C)C(=O)N1C[C@H]2CC[C@H](NS(=O)(=O)c3cccc(C(F)(F)F)c3)[C@H]2C1
pIC50: 5.31

# lookup: O=C(N[C@H]1CC[C@H]2CN(S(=O)(=O)c3cccc(C(F)(F)F)c3)C[C@H]21)C(C1CCCCC1)C1CCCCC1 on human Cav2.2 (Homo sapiens), pIC50 = 5.47

# lookup: CN[C@@H](CC(C)C)C(=O)N[C@@H]1CC[C@H]2CN(S(=O)(=O)c3ccc(Cl)cc3)C[C@H]21 on human Cav2.2 (Homo sapiens), pIC50 = 5.57

# lookup: CC(C)(C)CN[C@@H]1CC[C@H]2CN(S(=O)(=O)c3cccc(C(F)(F)F)c3)C[C@H]21 on human Cav2.2 (Homo sapiens), pIC50 = 5.38

# lookup: CCC[C@@H](C(=O)N[C@@H]1CC[C@H]2CN(S(=O)(=O)c3ccc(F)cc3)C[C@H]21)N(C)C(=O)OC(C)(C)C on human Cav2.2 (Homo sapiens), pIC50 = 5.95

# lookup: O=S(=O)(N[C@@H]1CC[C@H]2CN(Cc3ccccc3)C[C@H]21)c1cccc(C(F)(F)F)c1 on human Cav2.2 (Homo sapiens), pIC50 = 5.89

# lookup: CN[C@@H](CC(C)C)C(=O)N[C@@H]1CC[C@@H]2CN(Cc3ccccc3)C[C@@H]21 on human Cav2.2 (Homo sapiens), pIC50 = 5.09

# lookup: CCN(C(=O)OC(C)(C)C)[C@@H](CC(C)C)C(=O)N[C@H]1CC[C@@H]2CN(S(=O)(=O)c3cccc(C(F)(F)F)c3)C[C@@H]21 on human Cav2.2 (Homo sapiens), pIC50 = 6.70

# lookup: CC(C)C[C@@H](C(=O)N[C@@H]1CC[C@H]2CN(Cc3cccc(C(F)(F)F)c3)C[C@H]21)N1CCCS1(=O)=O on human Cav2.2 (Homo sapiens), pIC50 = 5.51

====

Target: human Cav2.2 (Homo sapiens, UniProt Q00975)
Sequence (Q00975 whole entry): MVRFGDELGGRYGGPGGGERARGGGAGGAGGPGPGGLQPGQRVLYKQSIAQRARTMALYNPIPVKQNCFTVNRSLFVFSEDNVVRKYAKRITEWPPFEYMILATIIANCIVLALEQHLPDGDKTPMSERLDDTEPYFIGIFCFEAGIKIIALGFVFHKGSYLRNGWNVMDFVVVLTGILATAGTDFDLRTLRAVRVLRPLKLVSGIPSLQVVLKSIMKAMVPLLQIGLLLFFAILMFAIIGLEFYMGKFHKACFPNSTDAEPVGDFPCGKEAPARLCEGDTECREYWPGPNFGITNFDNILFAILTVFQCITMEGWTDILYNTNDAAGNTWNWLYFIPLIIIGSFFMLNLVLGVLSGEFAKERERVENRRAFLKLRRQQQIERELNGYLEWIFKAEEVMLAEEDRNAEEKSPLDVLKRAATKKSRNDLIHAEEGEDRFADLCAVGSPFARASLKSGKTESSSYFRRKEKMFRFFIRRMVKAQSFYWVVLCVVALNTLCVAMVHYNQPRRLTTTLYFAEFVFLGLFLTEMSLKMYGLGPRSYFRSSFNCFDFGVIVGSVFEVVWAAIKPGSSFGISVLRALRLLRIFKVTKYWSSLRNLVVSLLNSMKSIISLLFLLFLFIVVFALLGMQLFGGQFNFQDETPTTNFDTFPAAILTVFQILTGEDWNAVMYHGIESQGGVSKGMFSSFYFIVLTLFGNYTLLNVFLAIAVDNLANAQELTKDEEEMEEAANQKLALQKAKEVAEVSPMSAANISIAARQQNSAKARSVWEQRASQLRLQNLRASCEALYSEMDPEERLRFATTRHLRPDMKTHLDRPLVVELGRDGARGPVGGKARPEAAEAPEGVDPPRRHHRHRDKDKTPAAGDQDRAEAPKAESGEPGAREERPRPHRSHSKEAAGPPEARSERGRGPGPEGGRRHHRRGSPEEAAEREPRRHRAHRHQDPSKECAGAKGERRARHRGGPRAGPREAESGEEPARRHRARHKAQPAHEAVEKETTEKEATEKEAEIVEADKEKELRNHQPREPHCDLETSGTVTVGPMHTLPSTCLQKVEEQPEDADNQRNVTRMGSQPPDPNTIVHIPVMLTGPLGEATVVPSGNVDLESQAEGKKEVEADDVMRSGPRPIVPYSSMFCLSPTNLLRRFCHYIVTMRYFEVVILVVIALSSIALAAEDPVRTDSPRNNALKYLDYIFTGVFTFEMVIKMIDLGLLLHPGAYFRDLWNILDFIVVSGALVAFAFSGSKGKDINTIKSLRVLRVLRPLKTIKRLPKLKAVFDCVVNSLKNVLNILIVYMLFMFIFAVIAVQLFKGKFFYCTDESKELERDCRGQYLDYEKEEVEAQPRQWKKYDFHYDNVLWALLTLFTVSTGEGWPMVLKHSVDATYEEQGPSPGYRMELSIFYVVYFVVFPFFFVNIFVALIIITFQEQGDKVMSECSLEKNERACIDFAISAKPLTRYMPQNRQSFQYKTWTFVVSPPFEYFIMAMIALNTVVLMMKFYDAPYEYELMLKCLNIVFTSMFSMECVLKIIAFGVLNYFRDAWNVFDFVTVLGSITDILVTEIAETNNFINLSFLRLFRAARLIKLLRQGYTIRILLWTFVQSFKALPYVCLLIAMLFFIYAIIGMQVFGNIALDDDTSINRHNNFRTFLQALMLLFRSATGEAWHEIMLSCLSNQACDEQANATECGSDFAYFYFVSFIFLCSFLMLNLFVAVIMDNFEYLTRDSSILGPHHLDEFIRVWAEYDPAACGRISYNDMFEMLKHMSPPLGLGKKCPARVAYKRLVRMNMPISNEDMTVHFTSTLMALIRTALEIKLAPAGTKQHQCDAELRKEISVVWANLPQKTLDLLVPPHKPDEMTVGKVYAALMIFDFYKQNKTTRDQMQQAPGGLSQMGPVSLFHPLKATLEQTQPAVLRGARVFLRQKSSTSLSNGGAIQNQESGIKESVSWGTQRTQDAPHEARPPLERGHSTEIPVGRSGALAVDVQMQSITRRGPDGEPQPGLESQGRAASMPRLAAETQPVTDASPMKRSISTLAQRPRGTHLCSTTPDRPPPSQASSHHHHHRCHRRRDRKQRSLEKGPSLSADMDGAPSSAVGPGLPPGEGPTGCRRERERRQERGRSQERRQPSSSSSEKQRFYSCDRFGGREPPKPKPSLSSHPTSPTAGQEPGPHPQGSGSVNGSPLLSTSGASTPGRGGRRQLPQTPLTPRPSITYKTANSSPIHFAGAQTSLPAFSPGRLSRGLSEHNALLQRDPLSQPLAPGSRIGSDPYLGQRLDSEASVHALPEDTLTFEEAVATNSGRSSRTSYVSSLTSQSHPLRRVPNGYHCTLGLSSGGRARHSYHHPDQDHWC
Sequence (P54289 25-946 partner limits assumed): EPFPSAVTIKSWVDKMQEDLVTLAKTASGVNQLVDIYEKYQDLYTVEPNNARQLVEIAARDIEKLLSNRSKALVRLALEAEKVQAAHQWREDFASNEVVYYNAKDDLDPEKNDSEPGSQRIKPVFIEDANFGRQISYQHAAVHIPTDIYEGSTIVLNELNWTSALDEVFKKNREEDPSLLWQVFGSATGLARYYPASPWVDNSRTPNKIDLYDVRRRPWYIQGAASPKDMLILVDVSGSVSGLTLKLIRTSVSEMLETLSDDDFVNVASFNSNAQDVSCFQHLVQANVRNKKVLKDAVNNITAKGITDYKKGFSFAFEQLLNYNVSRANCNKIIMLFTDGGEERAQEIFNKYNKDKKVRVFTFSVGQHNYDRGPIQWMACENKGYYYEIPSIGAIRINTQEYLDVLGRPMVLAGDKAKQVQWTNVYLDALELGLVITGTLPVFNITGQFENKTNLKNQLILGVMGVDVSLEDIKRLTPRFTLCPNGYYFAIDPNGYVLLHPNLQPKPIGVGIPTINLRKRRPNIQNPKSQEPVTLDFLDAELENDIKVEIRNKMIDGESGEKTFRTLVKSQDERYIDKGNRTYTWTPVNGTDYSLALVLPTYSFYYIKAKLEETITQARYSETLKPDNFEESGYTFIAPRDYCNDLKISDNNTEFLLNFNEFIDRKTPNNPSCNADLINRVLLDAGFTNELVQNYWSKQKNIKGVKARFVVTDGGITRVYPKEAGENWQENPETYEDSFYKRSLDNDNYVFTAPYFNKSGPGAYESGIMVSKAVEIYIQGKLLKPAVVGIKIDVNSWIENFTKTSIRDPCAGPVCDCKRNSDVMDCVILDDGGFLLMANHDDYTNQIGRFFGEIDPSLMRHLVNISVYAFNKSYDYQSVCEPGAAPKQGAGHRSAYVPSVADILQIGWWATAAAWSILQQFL
Sequence (P54289 947-1103 partner limits assumed): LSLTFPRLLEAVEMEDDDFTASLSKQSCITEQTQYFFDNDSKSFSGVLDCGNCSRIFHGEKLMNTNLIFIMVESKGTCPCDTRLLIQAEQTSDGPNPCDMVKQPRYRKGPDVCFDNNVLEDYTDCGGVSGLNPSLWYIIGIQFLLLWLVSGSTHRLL
Sequence (P54284 whole entry partner): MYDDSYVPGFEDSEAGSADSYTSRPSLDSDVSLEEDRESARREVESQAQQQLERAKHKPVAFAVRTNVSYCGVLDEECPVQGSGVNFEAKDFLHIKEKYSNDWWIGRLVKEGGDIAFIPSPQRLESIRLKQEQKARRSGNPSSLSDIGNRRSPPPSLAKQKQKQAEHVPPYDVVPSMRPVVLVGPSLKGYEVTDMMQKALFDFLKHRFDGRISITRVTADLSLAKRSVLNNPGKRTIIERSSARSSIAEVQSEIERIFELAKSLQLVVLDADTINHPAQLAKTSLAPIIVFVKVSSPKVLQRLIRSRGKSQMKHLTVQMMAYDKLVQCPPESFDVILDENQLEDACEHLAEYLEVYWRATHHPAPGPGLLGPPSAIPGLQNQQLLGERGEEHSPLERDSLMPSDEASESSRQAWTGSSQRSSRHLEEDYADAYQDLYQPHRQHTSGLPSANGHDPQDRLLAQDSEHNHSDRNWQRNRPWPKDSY
Test: Assessment of calcium channel activity using FLIPR (Ca2+ influx in IMR32 cells)
Type: cell-based
Conditions: 60 minute pre-incubation with compound, 2 μM nifedipine, depolarized with 80 mM KCl
pIC50: −log10 of the molar value.
Think of 6 as a floor: if pIC50 stands on it or above, it is 1; beneath it, -1.

See these solved cases before continuing.
compound: O=S(=O)(c1cccc(C(F)(F)F)c1)N1C[C@@H]2CC[C@@H](NCc3ccc(F)cc3)[C@@H]2C1 [Example 285]
group-label: 1
//
compound: CC(C)(C)CN[C@H]1CC[C@@H]2CN(S(=O)(=O)c3cccc(C(F)(F)F)c3)C[C@@H]21 [Example 282]
group-label: -1
//
compound: CCC[C@H](NC)C(=O)N1C[C@H]2CC[C@H](NC(=O)C(c3ccc(F)cc3)c3ccc(F)cc3)[C@H]2C1 [Example 460]
group-label: -1
//
compound: CC(C)(C)C[C@H](N)C(=O)N[C@H]1CC[C@@H]2CN(c3cccc(C(F)(F)F)n3)C[C@@H]21 [Example 441]
group-label: 1

Query :: Check if pIC50 >= 6 (inclusive). Item: CCC[C@@H](C(=O)N[C@H]1CC[C@@H]2CN(Cc3cccc(C(F)(F)F)c3)C[C@@H]21)N(C)C(=O)OC(C)(C)C [Example 313]
Result :: -1

Query :: Check if pIC50 >= 6 (inclusive). Item: CCC[C@H](NS(C)(=O)=O)C(=O)N[C@H]1CC[C@@H]2CN(Cc3ccc(C(F)(F)F)cc3)C[C@@H]21 [Example 521]
Result :: -1

Query :: Check if pIC50 >= 6 (inclusive). Item: CC(C)C[C@@H](C(=O)N[C@@H]1CC[C@H]2CN(S(=O)(=O)c3ccc(F)c(C(F)(F)F)c3)C[C@H]21)N(C)C(=O)OC(C)(C)C [Example 327]
Result :: -1

Query :: Check if pIC50 >= 6 (inclusive). Item: CC(C)(C)[C@H](N)C(=O)N[C@@H]1CC[C@H]2CN(S(=O)(=O)c3ccc(C(F)(F)F)cc3)C[C@H]21 [Example 409]
Result :: -1

====

Test system: Sprague Dawley rats
Experiment: Capsaicin induced secondary mechanical hyperalgesia model
Type: in vivo
Conditions: po, 1 h, read-out: % inhibition @ 30 mg/kg p.o., 60 minutes before testing, secondary mechanical hyperalgesia 180 minutes after intraplantar capsaicin, rat
Think of 50% as a floor: if inhibition in vivo at 30 mg/kg stands on it or above, it is True; beneath it, False.

See these solved cases before continuing.
smiles-repr: CN[C@@H](CC(C)C)C(=O)N[C@@H]1CC[C@H]2CN(Cc3ccccc3)C[C@H]21
assay-system: Sprague Dawley rats
group-label: True
--
smiles-repr: O=C(N[C@H]1CC[C@H]2CN(Cc3cccc(C(F)(F)F)c3)C[C@H]21)C(C1CCCCC1)C1CCCCC1
assay-system: Sprague Dawley rats
group-label: False
--
smiles-repr: CN[C@@H](CC(C)(C)C)C(=O)N[C@H]1CC[C@@H]2CN(S(=O)(=O)c3ccc(C(F)(F)F)cc3)C[C@@H]21
assay-system: Sprague Dawley rats
group-label: True
--
smiles-repr: CC(C)N[C@@H](CC(C)(C)C)C(=O)N[C@H]1CC[C@@H]2CN(C(=O)[C@H](Cc3ccccc3)NC(C)C)C[C@@H]21
assay-system: Sprague Dawley rats
group-label: False
--
smiles-repr: CN[C@@H](CC(C)C)C(=O)N[C@@H]1CC[C@H]2CN(S(=O)(=O)c3ccc(C(F)(F)F)cc3)C[C@H]21
assay-system: Sprague Dawley rats
group-label: True

Query :: Check if inhibition in vivo at 30 mg/kg >= 50% (inclusive). Item: O=C(N[C@@H]1CC[C@H]2CN(Cc3cccc(C(F)(F)F)c3)C[C@H]21)C(C1CCCCC1)C1CCCCC1
Result :: True

Query :: Check if inhibition in vivo at 30 mg/kg >= 50% (inclusive). Item: O=C(N[C@@H]1CC[C@@H]2CN(Cc3cccc(C(F)(F)F)c3)C[C@@H]21)C(C1CCCCC1)C1CCCCC1
Result :: True

Query :: Check if inhibition in vivo at 30 mg/kg >= 50% (inclusive). Item: CC(C)C[C@@H](C(=O)N[C@@H]1CC[C@H]2CN(Cc3ccccc3)C[C@H]21)N1CCCS1(=O)=O
Result :: True

Query :: Check if inhibition in vivo at 30 mg/kg >= 50% (inclusive). Item: CC(C)C[C@H](NS(=O)(=O)C1CC1)C(=O)N[C@@H]1CC[C@H]2CN(Cc3cccc(C(F)(F)F)c3)C[C@H]21
Result :: True

Query :: Check if inhibition in vivo at 30 mg/kg >= 50% (inclusive). Item: O=C(N[C@H]1CC[C@@H]2CN(c3cccc(C(F)(F)F)n3)C[C@@H]21)c1ccc(F)cc1
Result :: False

====

Biological target: human Cav2.2 (Homo sapiens)
Assay: Assessment of calcium channel activity using FLIPR (Ca2+ influx in IMR32 cells)
Format: cell-based
Details: 60 minute pre-incubation with compound, 2 μM nifedipine, depolarized with 80 mM KCl
readout-label: pIC50
FYI, pIC50 means -log10 of a concentration in mol per litre.

// pIC50 value for CN[C@@H](CC(C)C)C(=O)N1C[C@H]2CC[C@H](N(C(C)C)S(=O)(=O)c3cccc(C(F)(F)F)c3)[C@H]2C1 : 5.94
